Target sequence: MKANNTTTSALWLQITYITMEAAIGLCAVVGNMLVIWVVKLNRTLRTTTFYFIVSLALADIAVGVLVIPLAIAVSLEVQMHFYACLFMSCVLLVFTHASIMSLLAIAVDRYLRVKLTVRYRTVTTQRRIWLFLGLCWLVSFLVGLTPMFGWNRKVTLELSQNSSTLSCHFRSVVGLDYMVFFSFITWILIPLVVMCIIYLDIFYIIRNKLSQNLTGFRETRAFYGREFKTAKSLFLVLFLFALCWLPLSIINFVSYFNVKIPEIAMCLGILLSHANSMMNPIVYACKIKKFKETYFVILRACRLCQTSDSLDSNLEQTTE
reported-endpoint: Kd (nM)
Write the value in nM as a bare number.

Incoming: Quick check: Kd of Nc1ccc(CCNc2ncnc3c2ncn3[C@@H]2O[C@H](CO)[C@@H](O)[C@H]2O)cc1I ?
Outgoing: 15.5
